Biological target: human type 1 glycine transporter (GlyT1) (Homo sapiens)
Construct: T98G cells (glioma cells) expressing human type 1 glycine transporter (GlyT1) were used; endogenous in cells; host or cells: T98G cells (human glioma cells)
Sequence (P48067 1-706): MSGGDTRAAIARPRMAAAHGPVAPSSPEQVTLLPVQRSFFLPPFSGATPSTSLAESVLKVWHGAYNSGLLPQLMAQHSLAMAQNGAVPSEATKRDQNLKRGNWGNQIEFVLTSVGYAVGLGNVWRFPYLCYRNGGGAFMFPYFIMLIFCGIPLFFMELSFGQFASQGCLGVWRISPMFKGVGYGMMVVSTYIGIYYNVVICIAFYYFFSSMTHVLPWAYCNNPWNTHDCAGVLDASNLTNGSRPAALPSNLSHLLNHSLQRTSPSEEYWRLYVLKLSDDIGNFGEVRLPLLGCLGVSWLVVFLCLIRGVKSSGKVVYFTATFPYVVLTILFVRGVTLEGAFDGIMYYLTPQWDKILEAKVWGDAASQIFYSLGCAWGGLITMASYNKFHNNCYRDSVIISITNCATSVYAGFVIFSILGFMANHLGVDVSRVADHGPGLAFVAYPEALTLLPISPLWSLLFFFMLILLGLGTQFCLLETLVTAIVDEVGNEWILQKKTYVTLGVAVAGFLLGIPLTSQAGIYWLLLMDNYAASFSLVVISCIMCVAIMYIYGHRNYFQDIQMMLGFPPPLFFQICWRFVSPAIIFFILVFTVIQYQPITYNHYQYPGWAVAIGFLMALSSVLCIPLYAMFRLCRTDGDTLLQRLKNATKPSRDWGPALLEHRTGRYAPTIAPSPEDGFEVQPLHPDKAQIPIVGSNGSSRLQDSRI
Experiment: Glycine uptake inhibition experiment ([3H] glycine uptake in T98G cells expressing GlyT1)
Assay type: cell-based
Measured IC50 values are reported for all entries that follow.
Please reply with the bare figure in nM and do not write the unit itself.

# Molecule, Tested on, Parameter measured, Numeric readout
records = [
    ("N#Cc1cc(Cl)cnc1CN1C(=O)C(F)(F)c2c(C(O)C(F)F)cccc21 (single isomer, unassigned) [Compound 276]", "human type 1 glycine transporter (GlyT1) (Homo sapiens)", "IC50", 200),
    ("COc1ncc(CN2C(=O)C(F)(F)c3c([C@H](C)O)cccc32)cc1Cl [Compound 222]", "human type 1 glycine transporter (GlyT1) (Homo sapiens)", "IC50", 8.6),
    ("O=C1N(Cc2ccnc(C(F)(F)F)c2)c2cccc(C(O)C(F)F)c2C1(F)F (single isomer, unassigned) [Compound 191]", "human type 1 glycine transporter (GlyT1) (Homo sapiens)", "IC50", 29),
    ("O=C1N(Cc2ccc(Cl)cn2)c2cccc(C(O)C(F)F)c2C1(F)F (single isomer, unassigned) [Compound 162]", "human type 1 glycine transporter (GlyT1) (Homo sapiens)", "IC50", 220),
    ("C[C@H](O)c1cccc2c1C(F)(F)C(=O)N2Cc1ccc(C(F)(F)F)nc1Cl [Compound 239]", "human type 1 glycine transporter (GlyT1) (Homo sapiens)", "IC50", 220),
]

Request: GET /values?readout=IC50&item= C[C@H](O)c1cccc2c1C(F)(F)C(=O)N2Cc1ccc(-n2nccn2)nc1 [Compound 196]
Response: 4200

Request: Please answer likewise for C[C@H](O)c1cccc2c1C(F)(F)C(=O)N2Cc1ncccc1C(F)(F)F [Compound 227]
Response: 380

Source listed as patent US20160159814A1.
